assay.system: human IRAK4 (Homo sapiens (Human), UniProt Q9NWZ3)
Sequence (Q9NWZ3 whole entry): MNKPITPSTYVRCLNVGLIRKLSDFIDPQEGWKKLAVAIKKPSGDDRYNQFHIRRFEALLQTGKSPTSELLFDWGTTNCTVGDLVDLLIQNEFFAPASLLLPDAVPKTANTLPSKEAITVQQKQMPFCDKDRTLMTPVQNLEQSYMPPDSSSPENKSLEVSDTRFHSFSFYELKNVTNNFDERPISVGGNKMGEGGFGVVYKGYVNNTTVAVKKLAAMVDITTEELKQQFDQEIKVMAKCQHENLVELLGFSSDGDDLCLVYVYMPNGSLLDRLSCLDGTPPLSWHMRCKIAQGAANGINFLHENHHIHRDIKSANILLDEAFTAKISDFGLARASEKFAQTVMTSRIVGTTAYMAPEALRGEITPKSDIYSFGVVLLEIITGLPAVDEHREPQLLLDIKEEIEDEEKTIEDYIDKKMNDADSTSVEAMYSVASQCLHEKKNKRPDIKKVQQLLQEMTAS
experimental.details: IRAK4 kinase assay (IRAK4 TR-FRET assay)
Type: biochemical
Provide the recorded IC50 for the entries that follow.
Please state the figure in nM; there is no need to write the unit.

For COC(=O)c1cc2nn(CCC(C)(C)O)cc2cc1NC(=O)c1cccc(C(F)(F)F)n1 [Intermediate 4-4] on human IRAK4 (Homo sapiens (Human), UniProt Q9NWZ3), measured IC50 was 6.2

Test item COCCn1cc2cc(NC(=O)c3cccc(C(F)(F)F)n3)c(C(=O)OC)cc2n1 [Intermediate 4-2] ; human IRAK4 (Homo sapiens (Human), UniProt Q9NWZ3); reported IC50 was 21.7

Record for COCCCn1cc2cc(NC(=O)c3cccc(C(F)(F)F)n3)c(C(=O)OC)cc2n1 [Intermediate 4-3] under target or system human IRAK4 (Homo sapiens (Human), UniProt Q9NWZ3): IC50 reported as 13

----------
assay.system: human IRAK4 (Homo sapiens (Human), UniProt Q9NWZ3)
experimental.details: IRAK4 kinase assay (IRAK4 TR-FRET assay)
Type: biochemical
applied.conditions: TR-FRET, 1 mM ATP; read-out: IC50 in the IRAK4 kinase assay
property.measured: pIC50
Keep it numeric: pIC50 is minus log10 of the concentration in mol/L.

Kindly note the recorded pIC50 for CC(C)(O)c1cc2nn(CCCS(C)(=O)=O)cc2cc1NC(=O)c1cccc(C(F)(F)F)n1 [Example 10] , which is 7.73

pIC50 for CC(C)(O)c1cc2nn(CCCO)cc2cc1NC(=O)c1cccc(C(F)F)n1 [Example 15] is 7.91

pIC50 in this record for CC(C)(O)c1cc2nn(CCCOC(F)(F)F)cc2cc1NC(=O)c1cccc(C(F)(F)F)n1 [Example 17] : 7.44

The compound listed as CC(C)(O)c1cc2nn(CC3COC3)cc2cc1NC(=O)c1cccc(C(F)(F)F)n1 [Example 8] has a reported pIC50 of 7.82

pIC50 measured on CC(C)(O)c1cc2nn(CCCC(F)(F)F)cc2cc1NC(=O)c1cccc(C(F)(F)F)n1 [Example 16] = 7.67

What the record says about CC(C)(O)c1cc2nn(CCS(C)(=O)=O)cc2cc1NC(=O)c1cccc(C(F)F)n1 [Example 14] : pIC50 is 7.97

Quick note, pIC50 for Cc1nc(C(=O)Nc2cc3cn(CCC(C)(C)O)nc3cc2C(C)(C)O)ccc1F [Example 19] landed at 8.05

Value of pIC50 reported for the compound COCCCn1cc2cc(NC(=O)c3cccc(C(F)(F)F)n3)c(CO)cc2n1 [Example 4] is 7.28

----------
assay.system: UniProtKB Q9NWZ3
experimental.details: IRAK4 kinase assay (IRAK4 TR-FRET assay)
Format: biochemical
applied.conditions: TR-FRET, 1 mM ATP; read-out: IC50 in the IRAK4 kinase assay
Protocol: The IRAK4-inhibitory activity of the inventive substances was measured in the IRAK4 TR-FRET assay (TR-FRET=Time Resolved Fluorescence Resonance Energy Transfer) described hereinafter. […] The resulting mixture was incubated at 22° C. for 1 h to allow formation of a complex of the biotinylated phosphorylated substrate and the detection reagents. […] The IC50 values were calculated by a 4-parameter fit.
property.measured: pIC50
Recall that pIC50 is obtained by taking minus log10 of the concentration measured in molar.

For this molecule ( O=C(Nc1cc2cn(CC3COC3)nc2cc1CO)c1cccc(C(F)(F)F)n1 ), measured pIC50 is 6.98

The molecule Cc1cccc(C(=O)Nc2cc3cn(CCC(C)(C)O)nc3cc2C(C)(C)O)n1 showed pIC50 equal to 7.88

pIC50 reading for CC(C)(O)c1cc2nn(CCC3(O)CC3)cc2cc1NC(=O)c1cccc(C(F)(F)F)n1 : 8.43

// CC(C)(O)c1cc2nn(CCCO)cc2cc1NC(=O)c1cccc(C(F)(F)F)n1 : pIC50 value = 7.45

Input O=C(Nc1cc2cn(CCO)nc2cc1CO)c1cccc(C(F)(F)F)n1 . Output pIC50: 6.06

Record COCCn1cc2cc(NC(=O)c3cccc(C(F)(F)F)n3)c(C(C)(C)O)cc2n1 . Reported pIC50: 7.51

Reported pIC50 of CC(C)(O)CCn1cc2cc(NC(=O)c3cccc(C(F)F)n3)c(C(C)(C)O)cc2n1 : 8.89

Reported pIC50 of CC(C)(O)c1cccc(C(=O)Nc2cc3cn(CCCC(F)(F)F)nc3cc2C(C)(C)O)n1 : 6.93

Recorded pIC50 (molecule CC(C)(O)c1cc2nn(CCO)cc2cc1NC(=O)c1cccc(C(F)(F)F)n1 ): 6.58

The molecule listed as CC(C)(O)c1cc2nn(CCCOCC(F)(F)F)cc2cc1NC(=O)c1cccc(C(F)(F)F)n1 has a reported pIC50 of 7.32
